Biological target: A1R (Mus musculus, UniProt Q60612)
Construct: To obtain the P1 fraction, cerebral cortex and spinal cord were homogenized in chilled sucrose; from tissue; host or cells: cerebral cortex and spinal cord membranes (P1 fraction) of SOD1-G93A transgenic and WT B6SJL mice
Sequence (Q60612 1-326): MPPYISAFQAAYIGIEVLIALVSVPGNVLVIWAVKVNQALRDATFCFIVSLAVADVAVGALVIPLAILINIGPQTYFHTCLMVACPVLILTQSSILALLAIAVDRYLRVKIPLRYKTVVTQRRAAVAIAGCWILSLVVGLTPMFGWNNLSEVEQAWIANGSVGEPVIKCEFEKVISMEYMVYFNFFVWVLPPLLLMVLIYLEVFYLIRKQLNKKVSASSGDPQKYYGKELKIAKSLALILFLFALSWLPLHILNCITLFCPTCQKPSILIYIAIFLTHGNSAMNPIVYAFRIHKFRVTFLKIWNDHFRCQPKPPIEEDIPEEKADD
Assay type: binding
Conditions: spinal cord; WT mice age-matched to pre-symptomatic (4–6 weeks old); mean ± SEM; read-out: DPCPX equilibrium dissociation constant (KD)
RECORDED_METRIC: pKd
pKd (log units): -log10 of the concentration in mol/L.

IN: // pKd lookup, key: CCCn1c(=O)c2[nH]c(C3CCCC3)nc2n(CCC)c1=O [DPCPX, [^3H]-8-Cyclopentyl-1,3-dipropylxanyine]
OUT: 7.82
